TGI by entry:
Test system: SN12C renal
TEST_NAME: NCI tumour cell line growth inhibition, 48 h

| CHEMICAL_STRUCTURE | TGI |
| --- | --- |
| O=C1Sc2cc3ccccc3cc2C(=O)Sc2cc3ccccc3cc21 | 75.7 µM |
| Cc1cccc(=O)c([O-])c1.Cc1cccc(=O)c([O-])c1.Cc1cccc(=O)c([O-])c1.Cc1cccc(=O)c([O-])c1.[Th+4] | > 100 µM |
| O=C(O)Cn1ncn(NC(=O)Cc2ccccc2)c1=S | > 10 µM |
| O=C(c1ccccc1)c1ccc2nc(-c3c(Cl)c(Cl)c(Cl)c(Cl)c3C(=O)Nc3ccco3)[nH]c2c1 | > 100 µM |
| N#CC(=S)Nc1cccc(Cl)c1 | > 100 µM |
| O=C(NCCNCCO)N/N=C/c1ccccc1 | > 100 µM |
| O=C(O)c1ccc2c(c1)Cc1cc([N+](=O)[O-])ccc1-2 | > 100 µM |

* * *

Tested on: T-47D breast
TEST_NAME: NCI tumour cell line growth inhibition, 48 h
compounds and their reported TGI

| COMPOUND | OPERATOR | TGI, µM |
| --- | --- | --- |
| O=C(/C=C/c1cccnc1)NCCCCC1CCN(C(=O)c2ccccc2)CC1 | > | 90.3 |
| c1ccc2c(c1)ccc1nc(-c3ccc4c(c3)OCO4)c3c(c12)CCC3 | > | 100 |
| O=C(O)c1cc2ccccc2c(O)c1O | = | 57.7 |
| O=C1/C(=C/C=C/c2ccccc2)CCC1CNc1ccc(Br)cc1 (stereo unspecified) | > | 100 |
| O=c1[nH]nc(N/N=C\c2ccc(Cl)cc2)c2ccccc12 | = | 69.2 |
| O=C(c1ccccc1)c1ccc2nc(-c3c(Cl)c(Cl)c(Cl)c(Cl)c3C(=O)Nc3ccco3)[nH]c2c1 | > | 100 |
| CCOc1ccccc1N=NC1C(=O)N(C(=O)CC(=O)Nc2ccccc2OC)N=C1C (stereo unspecified) | > | 100 |
| CCN(Cc1cccc(OC)c1)c1ccc(CO)c(Cl)c1 | = | 1.83 |
| COC(C[C@H]1CCCC[C@]1(O)/C(=C\CO[Si](C(C)C)(C(C)C)C(C)C)Sc1ccccc1)OC | = | 40.8 |
| OCc1cn(Cc2cccc(Cl)c2)c2ccccc12 | = | 5.15 |
| O=C(O)Cn1ncn(NC(=O)Cc2ccccc2)c1=S | > | 10 |

* * *

Each entry below carries its reported TGI.
System: HOP-62 NSCLC
TEST_NAME: NCI tumour cell line growth inhibition, 48 h
PROPERTY: TGI

| MOLECULE | PROPERTY | OBSERVED_MEASUREMENT |
| --- | --- | --- |
| CC(=O)CCCCCCCCCCCC[C@@H]1CC[C@H](C)[C@H](O)N1 | TGI | > 100 µM |
| O=C1/C(=C/C=C/c2ccccc2)CCC1CNc1ccc(Br)cc1 (stereo not given) | TGI | > 100 µM |
| c1cc2c3c(c1)[C@@H]1O[C@@H]1c1cccc(c1-3)[C@@H]1O[C@H]21 | TGI | > 100 µM |
| CCCN(CCCCC(NC(C)=O)C(=O)NCc1ccccc1)C(=O)NCCCl (stereo not given) | TGI | > 100 µM |
| O=c1oc2ccccc2c(O)c1C(c1ccc(O)cc1)c1c(O)c2ccccc2oc1=O | TGI | > 100 µM |
| Cc1ccc(S(=O)(=O)CC2CCCn3c2c(C#N)c2ccccc23)cc1 (stereo not given) | TGI | > 100 µM |
| CC(=O)OC1C(=O)C(O)C(C)OC1O[C@@H]1C[C@@]2(C)[C@@H]3CC=C4[C@@H](C[C@H](O)C(=O)C4(C)C)[C@]3(C)C(=O)C[C@]2(C)[C@H]1[C@@](C)(O)C(=O)/C=C/C(C)(C)O (stereo not given in full) | TGI | 5.42 µM |
| CC1Cc2c(cc(N)nc2Br)NC1=O (stereo not given) | TGI | > 100 µM |
| Clc1ccc(-n2nnc(C3=NCCN3)c2-c2ccccc2)cc1 | TGI | > 100 µM |
| C(=N\Nc1ccccn1)/c1ccccn1 | TGI | > 100 µM |
